study-system: CDK4D1 (Homo sapiens)
Sequence (P11802 whole entry): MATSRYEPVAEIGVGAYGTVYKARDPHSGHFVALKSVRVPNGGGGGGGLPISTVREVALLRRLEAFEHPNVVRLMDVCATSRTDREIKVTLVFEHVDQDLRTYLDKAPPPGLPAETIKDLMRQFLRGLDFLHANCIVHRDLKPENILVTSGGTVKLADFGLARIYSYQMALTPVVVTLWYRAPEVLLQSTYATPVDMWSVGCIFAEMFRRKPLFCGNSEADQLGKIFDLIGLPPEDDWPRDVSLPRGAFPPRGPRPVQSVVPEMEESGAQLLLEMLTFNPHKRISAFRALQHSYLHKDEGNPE
Sequence (P24385 whole entry partner): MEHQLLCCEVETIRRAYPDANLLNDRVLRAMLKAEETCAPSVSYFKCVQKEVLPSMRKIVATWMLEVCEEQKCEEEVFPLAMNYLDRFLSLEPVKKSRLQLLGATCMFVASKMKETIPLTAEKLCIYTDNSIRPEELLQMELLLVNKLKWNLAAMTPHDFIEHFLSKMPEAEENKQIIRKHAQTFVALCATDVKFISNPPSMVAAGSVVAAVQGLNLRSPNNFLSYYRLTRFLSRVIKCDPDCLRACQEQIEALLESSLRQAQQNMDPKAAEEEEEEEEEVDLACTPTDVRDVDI
test-description: Kinase assay CDK4/D1 (radiometric or ADP Glo)
condition: apparent Ki calculated from Km (ATP) and IC50; read-out: CDK inhibition Ki CDK4D1
Method: Eurofins Pharma Discovery or Reaction Biology Corporation Kinase Profiler services were used to measure inhibition of CDKs and other kinases by radiometric assay. Inhibition of CDK4/D1, CDK6/D3 and CDK9/T1 were also determined in-house using ADP Glo Kinase assays (Promega Corporation, Madison, USA). […] Luminescence was measured using an EnVision Multilabel plate reader (PerkinElmer, Buckinghamshire, UK). […]
pKi: −log10 of the molar value.
measured-endpoint: pKi

Examples with their reported pKi follow.
>  <compound>
CCN1CCN(Cc2ccc(Nc3nccc(-c4sc(C(C)C)nc4C)n3)nc2)CC1 [Compound 18]

>  <study-system>
CDK4D1 (Homo sapiens)

>  <pKi>
7.55

$$$$
>  <compound>
Cc1nc(N(C)C)sc1-c1ccnc(Nc2ccc(N3CCN(C)CC3)cn2)n1 [Compound 45]

>  <study-system>
CDK4D1 (Homo sapiens)

>  <pKi>
7.52

$$$$
>  <compound>
Cc1nc(N(C)C)sc1-c1nc(Nc2ccc(N3CCOCC3)cn2)ncc1F [Compound 50]

>  <study-system>
CDK4D1 (Homo sapiens)

>  <pKi>
7.36

$$$$

a: Cc1nc(NC(C)C)sc1-c1ccnc(Nc2ccc(N3CCN(C)CC3)cn2)n1 [Compound 56]
b: CCc1nc(C)c(-c2ccnc(Nc3ccc(N4CCOCC4)cn3)n2)s1 [Compound 12]
Identify the entry with the smaller pKi: a or b . Bench note: the answer is the label of the chosen record.
b

====

study-system: CDK1B (Homo sapiens, UniProt P06493)
Sequence (P06493 whole entry): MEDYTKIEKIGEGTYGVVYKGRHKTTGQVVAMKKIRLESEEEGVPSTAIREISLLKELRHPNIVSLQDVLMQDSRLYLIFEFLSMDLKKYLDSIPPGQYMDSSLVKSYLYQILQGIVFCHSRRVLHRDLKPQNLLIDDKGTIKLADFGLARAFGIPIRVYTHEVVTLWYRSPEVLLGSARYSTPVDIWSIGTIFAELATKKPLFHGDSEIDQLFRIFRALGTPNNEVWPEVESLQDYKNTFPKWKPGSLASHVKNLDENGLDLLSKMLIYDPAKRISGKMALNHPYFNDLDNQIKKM
Sequence (P14635 whole entry partner): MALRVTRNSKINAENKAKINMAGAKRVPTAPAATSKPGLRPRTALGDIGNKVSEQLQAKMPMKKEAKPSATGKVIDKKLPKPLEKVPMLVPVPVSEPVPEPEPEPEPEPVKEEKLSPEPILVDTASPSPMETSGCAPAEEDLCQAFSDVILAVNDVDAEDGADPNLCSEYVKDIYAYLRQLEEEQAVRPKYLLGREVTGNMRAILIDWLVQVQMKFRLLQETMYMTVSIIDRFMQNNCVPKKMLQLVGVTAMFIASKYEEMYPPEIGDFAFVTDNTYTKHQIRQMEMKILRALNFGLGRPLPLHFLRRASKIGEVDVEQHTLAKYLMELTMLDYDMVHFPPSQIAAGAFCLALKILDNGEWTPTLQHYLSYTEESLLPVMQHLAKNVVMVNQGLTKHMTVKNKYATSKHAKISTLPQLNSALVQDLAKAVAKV
measured-endpoint: Ki (µM)

Examples with their reported Ki follow.
>  <molecule>
Cc1nc(NC2CCCC2)sc1-c1ccnc(Nc2ccc(N3CCC(N)CC3)cn2)n1 [Compound 74]

>  <quantity-unit>
µM

>  <measurement>
1.23

$$$$
>  <molecule>
CNc1nc(C)c(-c2nc(Nc3ccc(N4CCOCC4)cn3)ncc2F)s1 [Compound 38]

>  <quantity-unit>
µM

>  <measurement>
3.31

$$$$

a: Cc1nc(NC2CCCC2)sc1-c1ccnc(Nc2ccc(N3CCCNCC3)cn2)n1 [Compound 76]
b: CNc1nc(C)c(-c2nc(Nc3ccc(N4CCNCC4)cn3)ncc2F)s1 [Compound 28]
Identify the entry with the smaller Ki: a or b . Bench note: the answer is the label of the chosen record.
b
(b: 1.36 µM, a: 4.07 µM)

====

study-system: T1, CDK9T1 (Homo sapiens, UniProt P50750)
T1 construct: purchased Eurofins Pharma Discovery or Reaction Biology Corporation (service)
T1 sequence (P50750 whole entry): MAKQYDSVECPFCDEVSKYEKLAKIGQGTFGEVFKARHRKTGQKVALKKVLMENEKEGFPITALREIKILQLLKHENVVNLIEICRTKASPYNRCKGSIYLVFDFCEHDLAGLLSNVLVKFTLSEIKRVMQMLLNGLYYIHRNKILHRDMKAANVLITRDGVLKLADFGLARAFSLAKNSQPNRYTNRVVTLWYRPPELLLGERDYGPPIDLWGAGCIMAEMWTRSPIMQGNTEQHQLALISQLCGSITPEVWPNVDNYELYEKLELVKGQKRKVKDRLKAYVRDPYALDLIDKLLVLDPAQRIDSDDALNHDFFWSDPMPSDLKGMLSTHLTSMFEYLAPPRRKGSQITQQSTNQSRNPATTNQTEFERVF
T1 sequence (O60563 whole entry partner): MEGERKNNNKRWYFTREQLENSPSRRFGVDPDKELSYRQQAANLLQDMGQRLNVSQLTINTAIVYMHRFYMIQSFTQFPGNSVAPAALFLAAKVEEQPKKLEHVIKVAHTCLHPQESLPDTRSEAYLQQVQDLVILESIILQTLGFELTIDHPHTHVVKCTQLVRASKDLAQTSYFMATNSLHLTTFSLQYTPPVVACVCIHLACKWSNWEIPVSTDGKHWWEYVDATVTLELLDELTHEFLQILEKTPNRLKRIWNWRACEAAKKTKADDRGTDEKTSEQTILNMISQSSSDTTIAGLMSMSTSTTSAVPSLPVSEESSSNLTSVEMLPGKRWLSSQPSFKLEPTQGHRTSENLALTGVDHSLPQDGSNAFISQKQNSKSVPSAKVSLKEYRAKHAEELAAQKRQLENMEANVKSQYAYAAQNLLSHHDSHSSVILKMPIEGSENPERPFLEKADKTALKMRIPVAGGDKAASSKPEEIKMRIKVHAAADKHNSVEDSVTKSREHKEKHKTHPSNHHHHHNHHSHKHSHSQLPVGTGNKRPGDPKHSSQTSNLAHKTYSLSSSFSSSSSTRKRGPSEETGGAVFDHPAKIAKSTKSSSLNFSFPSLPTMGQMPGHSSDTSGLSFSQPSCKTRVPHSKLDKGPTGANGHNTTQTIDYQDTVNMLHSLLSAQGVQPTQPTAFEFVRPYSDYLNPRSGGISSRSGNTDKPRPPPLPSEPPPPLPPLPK
test-description: Kinase assay CDK9/T1 (radiometric or ADP Glo)
Format: biochemical
condition: compound at 10 μM; read-out: % remaining enzymatic activity at 10 μM CDK9T1
Method: Eurofins Pharma Discovery or Reaction Biology Corporation Kinase Profiler services were used to measure inhibition of CDKs and other kinases by radiometric assay. Inhibition of CDK4/D1, CDK6/D3 and CDK9/T1 were also determined in-house using ADP Glo Kinase assays (Promega Corporation, Madison, USA). […] Luminescence was measured using an EnVision Multilabel plate reader (PerkinElmer, Buckinghamshire, UK). […]
measured-endpoint: remaining activity at 10 µM (%)

Examples with their reported remaining activity at 10 µM follow.
>  <compound>
Cc1c(-c2ccnc(Nc3ccc(N4CCNCC4)cn3)n2)sc(=O)n1C1CCCC1 [Compound 96]

>  <measured-endpoint>
remaining activity at 10 µM

>  <measurement>
15

$$$$
>  <compound>
CNc1nc(C)c(-c2nc(Nc3ccc(N4CCNCC4)cn3)ncc2C#N)s1 [Compound 27]

>  <measured-endpoint>
remaining activity at 10 µM

>  <measurement>
11

$$$$

1: CNc1nc(C)c(-c2nc(Nc3ccc(N4CCN(C)CC4)cn3)ncc2C#N)s1 [Compound 30]
2: CSc1nc(C)c(-c2ccnc(Nc3ccc(N4CCN(C(C)=O)CC4)cn3)n2)s1 [Compound 22]
3: CC(=O)N1CCN(c2ccc(Nc3nccc(-c4sc(=O)[nH]c4C)n3)nc2)CC1 [Compound 95]
4: Cc1[nH]c(=O)sc1-c1ccnc(Nc2ccc(N3CCNCC3)cn2)n1 [Compound 97]
Sort the 4 compounds by remaining activity at 10 µM; largest first, smallest last. Answer by listing the labels in the requested order.
2, 3, 1, 4
(2: 80%, 3: 17%, 1: 9%, 4: 3%)

====

study-system: CDK 2A (Homo sapiens)
test-description: Kinase assay CDK2A (radiometric profiling service)
Format: biochemical
condition: compound at 10 μM; read-out: % remaining enzymatic activity at 10 μM CDK 2A
measured-endpoint: remaining activity at 10 µM (%)

Examples with their reported remaining activity at 10 µM follow.
>  <compound>
CC(=O)N1CCN(c2ccc(Nc3nccc(-c4sc(=O)[nH]c4C)n3)nc2)CC1 [Compound 95]

>  <study-system>
CDK 2A (Homo sapiens)

>  <quantity-unit>
%

>  <remaining activity at 10 µM>
40

$$$$
>  <compound>
Cc1c(-c2ccnc(Nc3ccc(N4CCNCC4)cn3)n2)sc(=O)n1C1CCCC1 [Compound 96]

>  <study-system>
CDK 2A (Homo sapiens)

>  <quantity-unit>
%

>  <remaining activity at 10 µM>
61

$$$$
>  <compound>
CNc1nc(C)c(-c2nc(Nc3ccc(N4CCN(C)CC4)cn3)ncc2C#N)s1 [Compound 30]

>  <study-system>
CDK 2A (Homo sapiens)

>  <quantity-unit>
%

>  <remaining activity at 10 µM>
36

$$$$
>  <compound>
Cc1[nH]c(=O)sc1-c1ccnc(Nc2ccc(N3CCN(C)CC3)cn2)n1 [Compound 92]

>  <study-system>
CDK 2A (Homo sapiens)

>  <quantity-unit>
%

>  <remaining activity at 10 µM>
61

$$$$
>  <compound>
Cc1[nH]c(=O)sc1-c1ccnc(Nc2ccc(N3CCNCC3)cn2)n1 [Compound 97]

>  <study-system>
CDK 2A (Homo sapiens)

>  <quantity-unit>
%

>  <remaining activity at 10 µM>
54

$$$$

P: Cc1c(-c2ccnc(Nc3ccc(N4CCN(C)CC4)cn3)n2)sc(=O)n1C [Compound 93]
Q: CNc1nc(C)c(-c2nc(Nc3ccc(N4CCNCC4)cn3)ncc2C#N)s1 [Compound 27]
In the pair P and Q , the larger recorded remaining activity at 10 µM belongs to which? Bench note: the answer is the label of the chosen record.
P

====

Test system: D283
test-description: Cell viability assay, medulloblastoma D283
Assay type: cell-based
condition: Homo sapiens, D283; 72 h, Medulloblastoma; read-out: Antiproliferative activity GI50 D283
measured-endpoint: GI50 (nM)

>  <smiles-repr>
CNc1nc(C)c(-c2nc(Nc3ccc(N4CCN(C)CC4)cn3)ncc2F)s1

>  <quantity-unit>
nM

>  <GI50>
489

$$$$

A: Cc1nc(NC2CCCC2)sc1-c1ccnc(Nc2ccc(N3CCNCC3)cn2)n1
B: Cc1nc(N(C)C2CCCC2)sc1-c1ccnc(Nc2ccc(N3CCN(C)CC3)cn2)n1
C: Cc1nc(NC2CCCC2)sc1-c1nc(Nc2ccc(N3CCN(C)CC3)cn2)ncc1F
Sort the 3 compounds by GI50; largest first, smallest last. Answer by listing the labels in the requested order.
B, A, C
(B: 358 nM, A: 124 nM, C: 77 nM)

====

The listing below reports Ki for compounds tested on UniProt Q00534.
Sequence (Q00534 whole entry): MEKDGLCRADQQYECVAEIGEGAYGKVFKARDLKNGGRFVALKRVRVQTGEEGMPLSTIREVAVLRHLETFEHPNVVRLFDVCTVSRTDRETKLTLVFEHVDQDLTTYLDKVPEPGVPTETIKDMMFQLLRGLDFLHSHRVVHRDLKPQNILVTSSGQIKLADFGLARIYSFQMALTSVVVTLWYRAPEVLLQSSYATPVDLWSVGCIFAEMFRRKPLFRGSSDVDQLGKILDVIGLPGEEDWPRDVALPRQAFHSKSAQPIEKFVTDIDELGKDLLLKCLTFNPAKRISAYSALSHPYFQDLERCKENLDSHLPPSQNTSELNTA
Sequence (P30281 whole entry partner): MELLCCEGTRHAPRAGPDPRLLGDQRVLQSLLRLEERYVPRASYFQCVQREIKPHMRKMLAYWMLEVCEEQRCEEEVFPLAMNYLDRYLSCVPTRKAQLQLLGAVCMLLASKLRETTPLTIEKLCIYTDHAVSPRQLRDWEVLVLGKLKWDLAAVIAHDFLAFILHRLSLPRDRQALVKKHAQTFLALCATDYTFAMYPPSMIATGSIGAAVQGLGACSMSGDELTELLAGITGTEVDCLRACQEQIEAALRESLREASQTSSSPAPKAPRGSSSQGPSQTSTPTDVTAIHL
measured-endpoint: Ki (µM)

Examples with their reported Ki follow.
>  <smiles-repr>
CNc1nc(C)c(-c2ccnc(Nc3ccc(N4CCN(C)CC4)cn3)n2)s1

>  <measured-endpoint>
Ki

>  <measurement>
0.05

$$$$
>  <smiles-repr>
Cc1nc(N(C)C)sc1-c1nc(Nc2ccc(N3CCNCC3)cn2)ncc1F

>  <measured-endpoint>
Ki

>  <measurement>
0.04

$$$$
>  <smiles-repr>
Cc1nc(NC2CCCC2)sc1-c1ccnc(Nc2ccc(N3CCCCC3)cn2)n1

>  <measured-endpoint>
Ki

>  <measurement>
0.257

$$$$
>  <smiles-repr>
Cc1nc(N(C)C2CCCC2)sc1-c1ccnc(Nc2ccc(N3CCNCC3)cn2)n1

>  <measured-endpoint>
Ki

>  <measurement>
0.01

$$$$
>  <smiles-repr>
CNc1nc(C)c(-c2ccnc(Nc3ccc(N4CCNCC4)cn3)n2)s1

>  <measured-endpoint>
Ki

>  <measurement>
0.114

$$$$
>  <smiles-repr>
CC(=O)N1CCN(c2ccc(Nc3ncc(C#N)c(-c4sc(C)nc4C)n3)nc2)CC1

>  <measured-endpoint>
Ki

>  <measurement>
0.201

$$$$

A: Cc1nc(N(C)C2CCCC2)sc1-c1ccnc(Nc2ccc(N3CCN(C)CC3)cn2)n1
B: CNc1nc(C)c(-c2ccnc(Nc3ccc(N4CCN(C(C)=O)CC4)cn3)n2)s1
Identify the entry with the smaller Ki: A or B . Bench note: the answer is the label of the chosen record.
A
(A: 0.01 µM, B: 3.03 µM)
